Provenance of the data: ChEMBL document CHEMBL4422609

- ASSAY DETAILS: Inhibition of GAC (unknown origin)
- Design: species or system Homo sapiens
pIC50: −log10 of the molar value.
MEASURE: pIC50

1: CN(C)c1ccc(C2Nc3ccc4ccccc4c3C3=C2C(=O)CC(C)(C)C3)cc1 (centres undefined)
2: CN(C)c1ccc(C2Nc3ccc4ccccc4c3C3=C2C(=O)CC(C)(C)C3)cc1Br (centres undefined)
3: CC(C)c1ccc(C2Nc3ccc4ccccc4c3C3=C2C(=O)CC(C)(C)C3)cc1 (centres undefined)
4: O=C(Cc1cccc(OC(F)(F)F)c1)Nc1ccc(CCCCc2nnc(NC(=O)Cc3ccccn3)s2)nn1
Query string: hey, can you rank those molecules up there by pIC50? biggest number first please Give the labels in the order specified.
Result string: 4, 2, 3, 1

###

- ASSAY DETAILS: Antiproliferative activity against human MDA-MB-231met2 cells
- Type: functional, cell-based
MEASURE: IC50

Query string: Supply reported IC50 belonging to this molecule: O=C(Cc1cccc(OC(F)(F)F)c1)Nc1ccc(CCCCc2nnc(NC(=O)Cc3ccccn3)s2)nn1
Result string: 2 to 300 nM
